System: CEM cells HIV-1 protection, formazan growth assay
Assay: NCI AIDS Antiviral Assay
Hi there, I'd appreciate the recorded EC50 for every entry that follows.

Checklist item: EC50 tested on CEM cells HIV-1 protection, formazan growth assay, entry CCOC(=O)NC(Nc1ccc(C(=O)OCC)cc1)(C(F)(F)F)C(F)(F)F , value?
> 200 µM

Checklist item: EC50 tested on CEM cells HIV-1 protection, formazan growth assay, entry C/C(CN1C(=O)c2ccccc2C1=O)=N\NS(=O)(=O)c1ccccc1 , value?
> 20.4 µM

Checklist item: EC50 tested on CEM cells HIV-1 protection, formazan growth assay, entry O=C(CSc1nnc(-c2ccc(Cl)cc2)s1)Nc1nccs1 , value?
> 200 µM

Checklist item: EC50 tested on CEM cells HIV-1 protection, formazan growth assay, entry CN1C2=C(CC3=C1CC(C)(C)CC3=O)C(=O)CC(C)(C)C2 , value?
> 100 µM

Checklist item: EC50 tested on CEM cells HIV-1 protection, formazan growth assay, entry CCC1(OC(=O)CN)C(=O)OCc2c1cc1n(c2=O)Cc2cc3ccccc3nc2-1 (stereo not drawn) , value?
> 10 µM

Checklist item: EC50 tested on CEM cells HIV-1 protection, formazan growth assay, entry CC1(C)C2CCC1(CS(=O)(=O)O)C(=O)C2 (stereo not drawn) , value?
> 200 µM

Checklist item: EC50 tested on CEM cells HIV-1 protection, formazan growth assay, entry COc1ccc(-n2nc(C)cc(Cl)c2=O)cc1 , value?
> 145 µM

Checklist item: EC50 tested on CEM cells HIV-1 protection, formazan growth assay, entry O=C(Nc1nc(=S)[nH][nH]1)C(=O)C1C(=O)Nc2ccccc2S1=O (stereo not drawn) , value?
> 372 µM

Checklist item: EC50 tested on CEM cells HIV-1 protection, formazan growth assay, entry CCN(CC)CCCNc1nnc2c(=O)n(C)c(=O)n(C)c2n1 , value?
> 200 µM

Checklist item: EC50 tested on CEM cells HIV-1 protection, formazan growth assay, entry COc1cc(C2c3cc4c(cc3OC3(N5CCCC5)CCCC23)OCO4)cc(OC)c1OC (stereo not drawn) , value?
> 550 µM

Checklist item: EC50 tested on CEM cells HIV-1 protection, formazan growth assay, entry Cc1ccc(/C=C2/N=C(N/N=C\C(O)C(O)C(O)C(O)CO)NC2=O)cc1 (stereo not drawn) , value?
> 200 µM

Checklist item: EC50 tested on CEM cells HIV-1 protection, formazan growth assay, entry CCOC(=O)C1=C(C)N(NC(N)=O)C2(N)N(NC(N)=O)C(C)=C(C(=O)OCC)C12C(=O)OCC (stereo not drawn) , value?
> 513 µM

Checklist item: EC50 tested on CEM cells HIV-1 protection, formazan growth assay, entry COc1ccc(COCC(Cn2ccnc2)OCc2ccc(C(=O)O)cc2)cc1 (stereo not drawn) , value?
> 631 µM

Checklist item: EC50 tested on CEM cells HIV-1 protection, formazan growth assay, entry CC(C)CNC(=O)c1c(NC(=O)c2ccccc2)sc2[nH]c(=O)n(-c3ccccc3)c(=O)c12 , value?
> 50.1 µM

Checklist item: EC50 tested on CEM cells HIV-1 protection, formazan growth assay, entry O=C(/C=C/c1ccccc1Cl)c1ccccc1Cl , value?
> 7.24 µM

Checklist item: EC50 tested on CEM cells HIV-1 protection, formazan growth assay, entry COCC(=O)OC1CCn2c1nc1c2C(=O)C(C)=C(NC(C)=O)C1=O (stereo not drawn) , value?
> 200 µM

Checklist item: EC50 tested on CEM cells HIV-1 protection, formazan growth assay, entry COc1c2c3c4c(c(OC)c(=O)c5c(O)c(Br)c(OC)c(c6c(OC)c(Br)c(O)c(c1=O)c36)c54)C(C(C)=O)=C(C)C2 , value?
> 13.8 µM

Checklist item: EC50 tested on CEM cells HIV-1 protection, formazan growth assay, entry CCOC(=O)/C=C1/SC(N2CCCCC2)C(=O)N1CC (stereo not drawn) , value?
> 166 µM
